- TARGET: full-length WT STING (Homo sapiens, UniProt Q86WV6, H232R)
- Construct: AviTag (after gg linker) (C); HRV3C cleavage site (after gs linker) (C); HIS8 (C); made in house; host or cells: Trichoplusia ni (Hi-Five) insect cells infected with baculovirus (virus generated and amplified in Sf21 cells); used as a washed membrane preparation
- Sequence (Q86WV6 with tags, fused parts or gaps H232R): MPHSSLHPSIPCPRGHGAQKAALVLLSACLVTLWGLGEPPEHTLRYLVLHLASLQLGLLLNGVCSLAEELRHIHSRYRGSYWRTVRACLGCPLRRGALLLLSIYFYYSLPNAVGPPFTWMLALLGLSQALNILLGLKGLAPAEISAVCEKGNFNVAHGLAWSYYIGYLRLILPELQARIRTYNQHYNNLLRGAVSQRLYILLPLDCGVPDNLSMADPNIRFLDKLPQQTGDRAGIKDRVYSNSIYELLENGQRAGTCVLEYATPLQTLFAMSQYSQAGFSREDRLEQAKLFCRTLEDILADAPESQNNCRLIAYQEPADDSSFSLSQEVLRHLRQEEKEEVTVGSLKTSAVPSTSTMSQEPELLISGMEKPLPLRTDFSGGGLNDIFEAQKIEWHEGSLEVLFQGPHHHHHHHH
- TEST DESCRIPTION: 3H-cGAMP filtration binding assay (WT STING)
- MEASUREMENT SETUP: competition with tritiated cGAMP, WT STING membrane
READOUT NAME: EC50 (nM)

Below: 5 compounds and their reported EC50.
COMPOUND	TARGET	QUANTITATIVE READOUT
COc1cc2sc(C(=O)C[C@H](C)C(=O)O)cc2cc1CCCOc1c(OC)cc2sc(CC[C@H](C)C(=O)O)cc2c1F	full-length WT STING (Homo sapiens, UniProt Q86WV6, H232R)	2240
COc1cc2sc(C(=O)C[C@H](C)C(=O)O)cc2cc1OCCCOc1c(OC)cc2sc(C(=O)C[C@H](C)C(=O)NS(=O)(=O)N(C)C)cc2c1F	full-length WT STING (Homo sapiens, UniProt Q86WV6, H232R)	31
COc1cc2sc(C(=O)C[C@H](C)C(=O)O)cc2c(F)c1OCCCOc1c(O)cc2sc(C(=O)C[C@H](C)C(=O)O)cc2c1F	full-length WT STING (Homo sapiens, UniProt Q86WV6, H232R)	1
COc1cc2sc(C(=O)CCC(=O)O)cc2cc1OCCc1nc2cc(C(=O)CCC(=O)O)sc2cc1OC	full-length WT STING (Homo sapiens, UniProt Q86WV6, H232R)	71
COc1cc2cc(C(=O)C[C@H](C)C(=O)O)sc2cc1OCCCOc1ccc2cc(C(=O)CCC(=O)O)sc2c1	full-length WT STING (Homo sapiens, UniProt Q86WV6, H232R)	14800

a. COc1cc2sc(C(=O)C[C@H](C)C(=O)O)cc2c(Cl)c1OCCCOc1c(OC)cc2sc(C(=O)C[C@H](C)C(=O)O)cc2c1Br
b. COc1cc2sc(C(=O)C[C@H](C)C(=O)O)cc2cc1OCC(C)COc1cc2cc(C(=O)C[C@H](C)C(=O)O)sc2cc1OC
c. COc1cc2sc(C(=O)C[C@H](C)C(=O)O)cc2cc1OCCCOc1cc2cc(C(=O)[C@H]3C[C@@H]3C(=O)O)sc2cc1OC (racemic)
d. COc1cc2sc(C(=O)CCC(=O)O)cc2cc1CCCc1nc2cc(C(=O)CCC(=O)O)sc2cc1OC
Please list these in order of increasing EC50. Thank you! Give me the labels in the order the question wants.
b, d, a, c

1. COc1cc2sc(C(=O)C[C@H](C)C(=O)O)cc2cc1OCCCc1nc2cc(C(=O)CCC(=O)O)sc2cc1OC
2. COc1cc2sc(C(=O)CCC(=O)O)cc2cc1CCCOc1cc2cc(C(=O)CCC(=O)O)sc2cc1OC
3. COc1cc2sc(C(=O)C[C@H](C)C(=O)O)cc2cc1NCCCOc1cc2cc(C(=O)C[C@H](C)C(=O)O)sc2cc1OC
4. COc1cc2sc(C(=O)C[C@H](C)C(=O)O)cc2cc1CCCCc1cc2cc(C(=O)C[C@H](C)C(=O)O)sc2cc1OC
5. COc1cc2sc(CC[C@H](C)C(=O)O)cc2c(F)c1OCCCOc1c(OC)cc2sc(C(=O)C[C@H](C)C(=O)O)cc2c1Cl
Arrange the 5 entries by EC50 so the values rise. Returns: the labels arranged in the requested order.
3, 2, 4, 5, 1

P. COc1cc2cc(C(=O)C[C@H](C)C(=O)O)sc2cc1OCCOc1ccc2sc(C(=O)CCC(=O)O)cc2c1
Q. COc1cc2sc(C(=O)C[C@H](C)C(=O)O)cc2c(F)c1OCCCOc1c(OC)c(Cl)c2sc(C(=O)C[C@H](C)C(=O)O)cc2c1Cl
Quick check, higher EC50 between P and Q ? Respond using the label that marks the chosen record.
P
